endpoint.name: logP

compound | logP
CCC(C)(C)CO | 1.57
CCC(O)C(C)(C)C (stereo unspecified) | 2.27
CC(C)CC(C)(C)O | 1.67
CC(C)CC(C)O (stereo unspecified) | 1.67
CCCCC(O)CCCC | 3.36
CC(C)CC(C)CO (stereo unspecified) | 2.19
CC(C)(C)CCCO | 2.39
CCCCCCCCCCCCCCO | 6.11
CCCCC(O)CC (stereo unspecified) | 2.31
CCCCCCC(O)CC (stereo unspecified) | 3.36

[P] CC(C)C(O)C(C)C
[Q] CCCCCCCCCCCCCCCO
**Query** Hi team, can someone confirm which has the larger logP: P or Q ? Thanks. Write down the label attached to your selection.
**Result** Q

[A] CCC(CC)CO
[B] CCCCCC(O)CCC (stereo unspecified)
**Query** When their logP values are compared, which is larger, A or B ? Provide the label of your selected option as the answer.
**Result** B
(B: 3.36, A: 1.78)
